Molecular target: atf-2 (K08F8.2) (Caenorhabditis elegans) (UniProt Q21361)
Sequence: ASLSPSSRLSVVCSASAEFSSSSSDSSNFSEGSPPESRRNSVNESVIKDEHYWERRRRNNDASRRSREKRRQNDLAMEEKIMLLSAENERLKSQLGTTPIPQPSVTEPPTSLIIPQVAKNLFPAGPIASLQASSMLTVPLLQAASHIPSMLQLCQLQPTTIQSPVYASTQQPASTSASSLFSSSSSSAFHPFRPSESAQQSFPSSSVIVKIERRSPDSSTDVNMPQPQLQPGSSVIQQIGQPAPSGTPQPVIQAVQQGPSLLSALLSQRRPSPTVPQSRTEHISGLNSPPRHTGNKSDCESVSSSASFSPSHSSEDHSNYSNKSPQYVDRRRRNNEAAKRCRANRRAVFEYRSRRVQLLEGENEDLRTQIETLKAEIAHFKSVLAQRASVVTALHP
Please respond with reported binding signal (PBM E-score (-0.5 to 0.5)) for every item in the list.
Write the value as a bare number.

May I ask what binding signal (PBM E-score (-0.5 to 0.5)) has been recorded for TGGCGCAA (double strand) [8-mer TGGCGCAA] ? 0.461

Entry under review: TTGCGCAA (double strand) [8-mer TTGCGCAA] . Reported binding signal (PBM E-score (-0.5 to 0.5))? 0.498

Item under review: TTACGTAA (double strand) [8-mer TTACGTAA] . Reported binding signal (PBM E-score (-0.5 to 0.5))? 0.478

Look at this sequence and give its reported binding signal (PBM E-score (-0.5 to 0.5)). GTTGCGCA (double strand) [8-mer GTTGCGCA] 0.452

Sample TTACGCAA (double strand) [8-mer TTACGCAA] — what was its binding signal (PBM E-score (-0.5 to 0.5))? 0.483

Using the record for TGGCGTAA (double strand) [8-mer TGGCGTAA] , report its binding signal (PBM E-score (-0.5 to 0.5)). 0.452

----------
Target: nhr-204 (R02C2.4) (Caenorhabditis elegans) (UniProt O44543)
Sequence: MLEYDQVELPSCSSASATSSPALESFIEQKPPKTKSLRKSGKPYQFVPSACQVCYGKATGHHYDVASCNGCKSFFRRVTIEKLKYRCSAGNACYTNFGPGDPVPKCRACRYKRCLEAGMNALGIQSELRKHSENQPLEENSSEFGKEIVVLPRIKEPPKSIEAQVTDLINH
parameter_measured: binding signal (PBM E-score (-0.5 to 0.5))

Any idea what binding signal (PBM E-score (-0.5 to 0.5)) came out for TGATCAAA (double strand) [8-mer TGATCAAA] on nhr-204 (R02C2.4) (Caenorhabditis elegans) (UniProt O44543)? 0.483

Query binding signal (PBM E-score (-0.5 to 0.5)) on nhr-204 (R02C2.4) (Caenorhabditis elegans) (UniProt O44543) for TAGACCAA (double strand) [8-mer TAGACCAA] 0.479

Give binding signal (PBM E-score (-0.5 to 0.5)) (nhr-204 (R02C2.4) (Caenorhabditis elegans) (UniProt O44543)) of the following sequence: CAGACCAA (double strand) [8-mer CAGACCAA] 0.479

Give recorded binding signal (PBM E-score (-0.5 to 0.5)) with nhr-204 (R02C2.4) (Caenorhabditis elegans) (UniProt O44543) for the following sequence: TTGATCAA (double strand) [8-mer TTGATCAA] 0.493
